# maps each entry to its GI50
Tested on: TK-10
Assay: NCI tumour cell line growth inhibition, 48 h
The source made the active and inactive calls. No stated cut-off is given here; in the data, active = GI50 up to about 1.1 µM and inactive = higher.

Solved cases (4 shown):
1. Brc1ccc(-c2cc(-c3ccc4c(c3)OCO4)c(-c3cccs3)n2Cc2ccccc2)cc1	> 100 µM (inactive)
2. CC(=O)N(C)C=C1C(=O)N(C)C(=O)N(C)C1=O	> 100 µM (inactive)
3. O=C1/C(=C2/CCCN2)C(c2ccc[nH]2)=NN1c1ccccc1	> 100 µM (inactive)
4. CC(=O)Nc1ccc2[nH]c(C(=O)N3CC(CCl)c4c3cc([N+](=O)[O-])c3ccccc43)cc2c1 (configuration not stated)	6.32 µM (inactive)

Recorded GI50 (molecule Cc1ccc(C2C(C(=O)C(C)(C)C)N2S(=O)(=O)c2ccc(C)cc2)cc1 (configuration not stated) ): 28.6 µM (inactive)

Recorded GI50 (molecule Clc1cc2ccccc2c2ccccc12 ): > 100 µM (inactive)

----------
# maps each entry to its GI50
Test system: NCI-H522
Test: NCI tumour cell line growth inhibition, 48 h
Calls of active or inactive are those of the source. No stated cut-off is given here; in the data, active = GI50 up to about 1.1 µM and inactive = higher.

Solved cases (8 shown):
1) CC1CC(=O)Nc2ccccc2N1C(=O)CN1CCC(CCCCN(C)C)CC1 (stereo not given)	> 100 µM (inactive)
2) COC(=O)/C=C(/C(=O)OC)c1cc2ccc3c([nH]c4ccccc43)c(C)c-2c1	2.54 µM (inactive)
3) CCOC(=O)c1cc(C(O)P2(=O)N(CC(C)(C)C)[C@@H]3CCCC[C@H]3N2CC(C)(C)C)cn1C(=O)OC(C)(C)C (stereo not given in full)	13.8 µM (inactive)
4) COc1cccc(NC(=O)CC(=O)N2N=C(N(CCC#N)c3ccccc3C)CC2c2ccccc2)c1 (stereo not given)	> 100 µM (inactive)
5) N=C(CC/C(N)=N/O)NO	> 100 µM (inactive)
6) Nc1ccn(CCOC(=O)c2ccccc2)c(=O)n1	> 100 µM (inactive)
7) Cc1ccc(C(C)(C)C[P+](C)(c2ccccc2)c2ccccc2)cc1	3.4 µM (inactive)
8) O=C1CSC(c2ccc(Cl)cc2)N1c1ccc(Oc2ccc(Cl)cc2)c(Cl)c1 (stereo not given)	7.13 µM (inactive)

Recorded GI50 (compound [N-]=[N+]=Nc1ccc2c(c1)Sc1ccccc1N2CCCCN1CCN(Cc2ccc(C(=O)c3ccccc3)cc2)CC1 ): 1.85 µM (inactive)

Recorded GI50 (compound COC(=O)c1c(O)ccc2c1c1c(n2C)C(=O)c2ccccc2C1=O ): 18.4 µM (inactive)

----------
Test system: KM-20L2
Assay: NCI tumour cell line growth inhibition, 48 h
Active and inactive are the calls of the source. Rule as the data show it: active = GI50 up to about 1.1 µM and inactive = higher.
# maps each entry to its GI50

Solved cases (2 shown):
1) CN(C)C(=N)c1ccccc1	> 100 µM (inactive)
2) CN(C)CCNC(=O)c1cccc2nc3cc(Cl)ccc3nc12	2.81 µM (inactive)

Recorded GI50 (compound CC1=C(C(=O)Nc2ccccc2C)C(c2ccc(C3C(C(=O)Nc4ccccc4C)=C(C)NC(C)=C3C(=O)Nc3ccccc3C)cc2)C(C(=O)Nc2ccccc2C)=C(C)N1 ): 3.74 µM (inactive)

----------
Tested on: UO-31
Assay: NCI tumour cell line growth inhibition, 48 h
Activity calls are given as the source filed them. Rule as the data show it: active = GI50 up to about 1.1 µM and inactive = higher.
Your response should consist of one outcome taken from active, inactive

1. N#Cc1c2ccc([N+](=O)[O-])cc2c(=O)n2c1sc1ccccc12	inactive

Request: Record request — test call for O=C1N/C(=N/N=C\c2ccccc2)N/C1=C/c1ccc(Cl)cc1
Response: inactive

Request: Record request — test call for C/C=C/C(=O)Oc1cccc2cccnc12
Response: inactive

Request: Record request — test call for O=C(O)c1ccccc1CC(Cc1ccc2c(c1)CCC2)C(=O)O (configuration not stated)
Response: inactive

Request: Record request — test call for CCOC(=O)[C@@H]1ON2O[C@H](OC3CCCCC3c3ccccc3)C[C@H]3OC(=O)[C@@H]1C32 (some centres not stated)
Response: inactive
